Test system: 292921-168-R-J2-PDC KRAS tumor spheroid viability
Experiment: Anticancer human tumor 292921-168-R-J2-PDC patient-derived pancreatic carcinoma cell line growth inhibition [KRAS2]
Conditions: second compound 10 µM; first compound 0.000316 µM; stronger effect = lower value; spheroids with HUVEC and MSC
Exercise: for every item that follows, state its recorded viability, T/C.

Q) Can you look up the measured viability, T/C of CN(C)C/C=C/C(=O)Nc1cc2c(Nc3ccc(F)c(Cl)c3)ncnc2cc1O[C@H]1CCOC1 + CNCc1ccccc1-c1csc(C(C)Nc2nc(C)nc3cc(OC)c(OC)cc23)c1 for me?
A) 0.13%

Q) Need viability, T/C of CN(C)C/C=C/C(=O)Nc1cc2c(Nc3ccc(F)c(Cl)c3)ncnc2cc1O[C@H]1CCOC1 + CC1OCC2(CCN(c3cnc(Sc4ccnc(N)c4Cl)c(N)n3)CC2)C1N , thanks.
A) 50.8%

Q) Entry Cn1ncnc1[C@H]1c2n[nH]c(=O)c3cc(F)cc(c23)N[C@@H]1c1ccc(F)cc1 + C=CC(=O)N1CCN(c2nc(=O)n(-c3c(C)ccnc3C(C)C)c3nc(-c4c(O)cccc4F)c(F)cc23)C(C)C1 has what viability, T/C?
A) 18.7%

Q) Recorded viability, T/C of CC(C)n1nc(-c2ccc3oc(N)nc3c2)c2c(N)ncnc21 + CC1OCC2(CCN(c3cnc(Sc4ccnc(N)c4Cl)c(N)n3)CC2)C1N , please.
A) 27.2%

Q) Any idea what viability, T/C was measured for CC(C)n1nc(-c2ccc3oc(N)nc3c2)c2c(N)ncnc21 + COc1cc2nc(C)nc(NC(C)c3cc(N)cc(C(F)(F)F)c3)c2cc1OC1CCOC1 ?
A) 32.7%

Q) Name the recorded viability, T/C for Cn1ncnc1[C@H]1c2n[nH]c(=O)c3cc(F)cc(c23)N[C@@H]1c1ccc(F)cc1 + COc1cc2nc(C)nc(NC(C)c3cc(N)cc(C(F)(F)F)c3)c2cc1OC1CCOC1 .
A) 26.1%

Q) Recorded viability, T/C for Cn1ncnc1[C@H]1c2n[nH]c(=O)c3cc(F)cc(c23)N[C@@H]1c1ccc(F)cc1 + CC1OCC2(CCN(c3cnc(Sc4ccnc(N)c4Cl)c(N)n3)CC2)C1N , please?
A) 34.5%

Q) Which viability, T/C value belongs to CC(=O)Nc1cccc(-n2c(=O)n(C3CC3)c(=O)c3c(Nc4ccc(I)cc4F)n(C)c(=O)c(C)c32)c1 + C=CC(=O)N1CCN(c2nc(=O)n(-c3c(C)ccnc3C(C)C)c3nc(-c4c(O)cccc4F)c(F)cc23)C(C)C1 ?
A) 19.9%

---

Tested on: 292921-168-R-J2-PDC KRAS tumor spheroid viability
Test: Anticancer human tumor 292921-168-R-J2-PDC cell line growth inhibition [KRAS2];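 further: drug exposure lasted seven days after spheroids formed for three days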
Details: curve of first compound; second compound 3.16 µM; spheroids with HUVEC and MSC
From the text: Multicellular complex tumor spheroid response to RAS pathway inhibitors in combination with a targeted agents in patient-derived cell lines with oncogenic KRAS variants from multiple cancer types A high-throughput screen of multi-cell type tumor spheroids was designed to identify active combinations of targeted small molecules and KRAS pathway inhibitors. […] Compounds. […] If the clinical Cmax for an agent had not been determined, the highest concentration tested was 10 microM. […]
pIC50: −log10 of the molar value.
Provide the reported pIC50 of each item.

Q) Please state recorded pIC50 (tested on 292921-168-R-J2-PDC KRAS tumor spheroid viability) of COc1cc2nccc(Oc3ccc(NC(=O)C4(C(=O)Nc5ccc(F)cc5)CC4)cc3)c2cc1OC + C=CC(=O)N1CCN(c2nc(OCC3CCCN3C)nc3c2CCN(c2cccc4cccc(C)c24)C3)CC1CC#N
A) > 7.50

Q) Param readout= pIC50; system= 292921-168-R-J2-PDC KRAS tumor spheroid viability; entry= CC(=O)OC12COC1CC(O)C1(C)C(=O)C(O)C3=C(C)C(OC(=O)C(O)C(NC(=O)OC(C)(C)C)c4ccccc4)CC(O)(C(OC(=O)c4ccccc4)C21)C3(C)C (configuration not stated) + COc1cc2nc(C)nc(NC(C)c3cc(N)cc(C(F)(F)F)c3)c2cc1OC1CCOC1 ; returns value.
A) > 8.00

Q) # query: pIC50 | item CC1OCC2(CCN(c3cnc(Sc4ccnc(N)c4Cl)c(N)n3)CC2)C1N (configuration not stated) + C=CC(=O)N1CCN(c2nc(OCC3CCCN3C)nc3c2CCN(c2cccc4cccc(C)c24)C3)CC1CC#N | system: 292921-168-R-J2-PDC KRAS tumor spheroid viability
A) > 7.50

Q) Notebook entry, 292921-168-R-J2-PDC KRAS tumor spheroid viability assay: pIC50 of CC(C)NCC(C(=O)N1CCN(c2ncnc3c2C(C)CC3O)CC1)c1ccc(Cl)cc1 (configuration not stated) + CC1OCC2(CCN(c3cnc(Sc4ccnc(N)c4Cl)c(N)n3)CC2)C1N = ?
A) > 7.50

Q) Recall the recorded pIC50 for CC(C)NCC(C(=O)N1CCN(c2ncnc3c2C(C)CC3O)CC1)c1ccc(Cl)cc1 (configuration not stated) + CNCc1ccccc1-c1csc(C(C)Nc2nc(C)nc3cc(OC)c(OC)cc23)c1 with 292921-168-R-J2-PDC KRAS tumor spheroid viability and state it.
A) > 7.50

Q) Find the measured pIC50: item CC1(C)CCC(CN2CCN(c3ccc(C(=O)NS(=O)(=O)c4ccc(NCC5CCOCC5)c([N+](=O)[O-])c4)c(Oc4cnc5[nH]ccc5c4)c3)CC2)=C(c2ccc(Cl)cc2)C1 + CNCc1ccccc1-c1csc(C(C)Nc2nc(C)nc3cc(OC)c(OC)cc23)c1 , target or system 292921-168-R-J2-PDC KRAS tumor spheroid viability.
A) > 7.50

Q) Value wanted: pIC50 (292921-168-R-J2-PDC KRAS tumor spheroid viability) of entry COc1cc(Nc2ncc3c(n2)-c2ccc(Cl)cc2C(c2c(F)cccc2OC)=NC3)ccc1C(=O)O + C=CC(=O)N1CCN(c2nc(=O)n(-c3c(C)ccnc3C(C)C)c3nc(-c4c(O)cccc4F)c(F)cc23)C(C)C1
A) > 7.50

Q) Short answer please: pIC50, 292921-168-R-J2-PDC KRAS tumor spheroid viability, entry CN(C)C/C=C/C(=O)Nc1cc2c(Nc3ccc(F)c(Cl)c3)ncnc2cc1O[C@H]1CCOC1 + C=CC(=O)N1CCN(c2nc(OCC3CCCN3C)nc3c2CCN(c2cccc4cccc(C)c24)C3)CC1CC#N
A) > 9.50

Q) Kindly state the measured pIC50 obtained for CC(C)n1nc(-c2ccc3oc(N)nc3c2)c2c(N)ncnc21 + C=CC(=O)N1CCN(c2nc(OCC3CCCN3C)nc3c2CCN(c2cccc4cccc(C)c24)C3)CC1CC#N with 292921-168-R-J2-PDC KRAS tumor spheroid viability.
A) > 9.50

Q) Enter reported pIC50 observed with 292921-168-R-J2-PDC KRAS tumor spheroid viability for O=C(c1cc(Cc2n[nH]c(=O)c3ccccc23)ccc1F)N1CCN(C(=O)C2CC2)CC1 + C=CC(=O)N1CCN(c2nc(OCC3CCCN3C)nc3c2CCN(c2cccc4cccc(C)c24)C3)CC1CC#N
A) > 7.50

Q) Look up pIC50 with 292921-168-R-J2-PDC KRAS tumor spheroid viability for this molecule: COc1cc(Nc2ncc3c(n2)-c2ccc(Cl)cc2C(c2c(F)cccc2OC)=NC3)ccc1C(=O)O + CNCc1ccccc1-c1csc(C(C)Nc2nc(C)nc3cc(OC)c(OC)cc23)c1
A) > 7.50

Q) Item CC1OCC2(CCN(c3cnc(Sc4ccnc(N)c4Cl)c(N)n3)CC2)C1N (configuration not stated) + CNCc1ccccc1-c1csc(C(C)Nc2nc(C)nc3cc(OC)c(OC)cc23)c1 with 292921-168-R-J2-PDC KRAS tumor spheroid viability - pIC50?
A) > 7.50
